- System: K562
- experimentSummary: Cytotoxicity against human K562 cells measured after 72 hrs by MTT assay
- Type: functional, cell-based
- condition: K562, 72 h
pIC50: −log10 of the molar value.
Quick reference for pIC50 among some compounds

- compound: "C=C1/C=C/C(=O)N[C@@H](C)C(=O)N[C@H](C(C)C)C(=O)O[C@H]([C@@H](C)CCCCCC)[C@@H](CCO)C(=O)N1"
  pIC50: 5.31
- compound: "CCCCCC[C@@H](C)[C@@H]1OC(=O)[C@H](C(C)C)NC(=O)[C@@H](C)NC(=O)/C=C/[C@H](CO)NC(=O)[C@H]1CCOCc1ccc(OC)cc1"
  pIC50: 4.67
- compound: "C=C1/C=C/C(=O)N[C@@H](C)C(=O)N[C@H](C(C)C)C(=O)OC([C@@H](C)CCC)[C@@H](CCOCc2ccc(OC)cc2)C(=O)N1 (single isomer, unassigned)"
  pIC50: 4.86
